molecular target: UniProt P30559; test: transcriptional reporter gene assay (luciferase), agonist activity on hOT receptor in transfected CHO cells
Sequence (P30559 whole entry): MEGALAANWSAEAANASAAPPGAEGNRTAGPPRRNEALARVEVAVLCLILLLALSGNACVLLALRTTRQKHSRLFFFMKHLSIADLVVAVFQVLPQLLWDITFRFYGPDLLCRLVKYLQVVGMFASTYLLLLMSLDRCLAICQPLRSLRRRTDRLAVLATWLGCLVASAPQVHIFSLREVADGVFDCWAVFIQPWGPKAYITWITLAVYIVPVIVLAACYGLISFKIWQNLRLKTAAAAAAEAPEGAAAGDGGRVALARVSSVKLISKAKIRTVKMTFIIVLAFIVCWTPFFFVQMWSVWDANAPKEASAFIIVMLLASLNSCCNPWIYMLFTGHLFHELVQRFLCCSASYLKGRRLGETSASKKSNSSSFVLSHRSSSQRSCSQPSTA
Starred links: 1 amine or outer side, 2 acyl side, 3 side chain; linkers in the order of their positions; H or OH if unused. Positions of bridges follow the written chain, without caps; N, C: chain ends. Non-standard residues stand in square brackets, D forms with d. Residues, ends and D or L forms follow the SMILES beside them. N(3-phenylpropyl)Gly = O=C(O)CNCCCc1ccccc1; Phe(4-Et) = CCc1ccc(C[C@H](N)C(=O)O)cc1; X1 = O=C(CN(Cc1ccc(F)c(F)c1)[*:1])[*:2]; X4 = Cc1ccc(CCN(CC(=O)[*:2])[*:1])cc1; cisHyp = O=C(O)[C@@H]1C[C@H](O)CN1; X2 = O=C(CCC[*:2])[*:1]; Mpa = O=C(O)CCS
attribute measured: EC50 (nM)
Note: unit nM is implicit; provide only the numeric part.

Check out these entries, answers already filled in.
CC[C@H](C)[C@@H]1NC(=O)[C@H](Cc2ccc(O)cc2)NC(=O)CCSSC[C@@H](C(=O)N(CCc2ccc(C)cc2)CC(=O)N[C@@H](CC(C)C)C(=O)NCC(N)=O)NC(=O)[C@H](CC(N)=O)NC(=O)[C@H](CCC(N)=O)NC1=O [Compound 15] ([Mpa]YIQNC[X4]LG-NH2; disulfide 1-6); 0.04
CC[C@H](C)[C@@H]1NC(=O)[C@H](Cc2ccc(O)cc2)NC(=O)CCSSC[C@@H](C(=O)N(CC(=O)N[C@@H](CC(C)C)C(=O)NCC(N)=O)Cc2ccc(F)c(F)c2)NC(=O)[C@H](CC(N)=O)NC(=O)[C@H](CCC(N)=O)NC1=O [Compound 11] ([Mpa]YIQNC[X1]LG-NH2; disulfide 1-6); 0.026
CC[C@H](C)[C@@H]1NC(=O)[C@H](Cc2ccc(O)cc2)NC(=O)CCSSC[C@@H](C(=O)N(CCCc2ccccc2)CC(=O)N[C@@H](CC(C)C)C(=O)NCC(N)=O)NC(=O)[C@H](CC(N)=O)NC(=O)[C@H](CCC(N)=O)NC1=O [Compound 25] ([Mpa]YIQNC[N(3-phenylpropyl)Gly]LG-NH2; disulfide 1-6); 0.058

Next molecule, please.
EC50 reported for this molecule CCc1ccc(C[C@@H]2NC(=O)CCCSC[C@@H](C(=O)N3C[C@@H](O)C[C@H]3C(=O)N[C@@H](CC(C)C)C(=O)NCC(N)=O)NC(=O)[C@H](CC(N)=O)NC(=O)[C@H](CCC(N)=O)NC(=O)[C@H]([C@@H](C)CC)NC2=O)cc1 [Compound 6] ([Phe(4-Et)]IQNC[cisHyp]LG-NH2; linker N-5 via X2) : 0.064
